- assayed.system: human α-thrombin (human)
- experiment.notes: amidolytic assay with chromogenic substrate S-2238, Lineweaver-Burk, 25° C.
endpoint: Ki (nM)
Answers are plain numbers, in nM.

Incoming: What value of measured Ki is listed for P3170, Bbs-R-(D-Pip)-Gly-(Ser-Pro-His-Tyr(P)-Glu-Lys-Val-Ser-Gly)-Asp-Phe-Glu-Glu-Ile-Pro-Glu-Glu-Tyr-Leu-Gln (peptide) ?
Outgoing: 1.5
